The origin of these recorded values is patent US9890175B2.

assay: Caco-2 cell monolayer membrane transport assay (Papp and recovery); assay type: in vitro ADME; settings: human, Caco-2, Caco-2, A-B, Sample-02; read-out: Papp A-B, Sample-02
observed_property: Papp A→B (×10⁻⁶ cm/s)
Report as a plain number; the unit ×10⁻⁶ cm/s is understood.

{"molecule": "CO[C@H]1C(=O)[C@]2(C)[C@@H](OC)C[C@H]3OC[C@@]3(OC(C)=O)[C@H]2[C@H](OC(=O)c2ccccc2)[C@]23OC(=O)O[C@H]2[C@H](OC(=O)[C@H](O)[C@H](CC(C)C)NC(=O)OC(C)(C)C)C(C)=C1C3(C)C [PCMI-05]", "Papp A→B (×10⁻⁶ cm/s)": 2.56}
{"molecule": "CO[C@H]1C(=O)[C@@]2(C)[C@H]([C@H](OC(=O)c3ccccc3)[C@]34OC(=O)O[C@H]3[C@H](OC(=O)[C@H](O)[C@@H](NC(=O)OC(C)(C)C)c3ccccc3)C(C)=C1C4(C)C)[C@]1(OC(C)=O)CO[C@@H]1C[C@@H]2O [PCMI-06]", "Papp A→B (×10⁻⁶ cm/s)": 1.13}
{"molecule": "CO[C@H]1C(=O)[C@]2(C)CC[C@H]3OC[C@@]3(OC(C)=O)[C@H]2[C@H](OC(=O)c2ccccc2)[C@]23OC(=O)O[C@H]2[C@H](OC(=O)[C@H](O)[C@@H](NC(=O)OC(C)(C)C)c2ccccc2)C(C)=C1C3(C)C [PCMI-07]", "Papp A→B (×10⁻⁶ cm/s)": 2.05}

Return reported Papp A→B; argument: COC(=O)O[C@H]1C[C@H]2OC[C@@]2(OC(C)=O)[C@H]2[C@H](OC(=O)c3ccccc3)[C@]34OC(=O)O[C@H]3[C@H](OC(=O)[C@H](O)[C@@H](NC(=O)N(C)C)c3ccccc3)C(C)=C([C@@H](OC)C(=O)[C@]12C)C4(C)C [PCMI-19]
4.05
